Provenance of the data: patent US20190255073A1

Listed below: log10 of MIC values for each entry.
system: P. aeruginosa ATCC27853; test: MIC determination by microplate dilution, P. aeruginosa human strain; type: cell-based, Pseudomonas aeruginosa; settings: Pseudomonas aeruginosa, ATCC27853, Gram-negative, Mueller-Hinton medium, 24 h, 37° C.
assay_endpoint: log10 of MIC (log10 of the value in mg/L)

[
  {
    "compound": "CC(C)OC(=O)CC[C@@H](C)[C@H]1CCC2C3CCC4C[C@@H](NCCCN(CCCN)CCCN)CC[C@]4(C)C3C[C@H](O)[C@@]21C (stereo partly drawn) [(28)]",
    "measured": 1.48
  },
  {
    "compound": "COC(=O)CC[C@@H](C)[C@H]1CCC2C3C(CC[C@@]21C)[C@@]1(C)CC[C@H](NCCCNCCCNCCCN)CC1C[C@@H]3O (stereo partly drawn) [Compound (12), methyl 3β-norsperminoursodeoxycholate]",
    "measured": 1.48
  },
  {
    "compound": "CC(C)OC(=O)CC[C@@H](C)[C@H]1CCC2C3C(C[C@H](O)[C@@]21C)[C@@]1(C)CC[C@H](NCCNCCNCCNCCNCCN)CC1C[C@H]3O (stereo partly drawn) [(21)]",
    "measured": 1.82
  },
  {
    "compound": "CC(C)OC(=O)CC[C@@H](C)[C@H]1CCC2C3C(C[C@H](O)[C@@]21C)[C@@]1(C)CC[C@H](NCCCN(C)CCCN)CC1C[C@H]3O (stereo partly drawn) [(36)]",
    "measured": 1.76
  },
  {
    "compound": "COC(=O)CC[C@@H](C)[C@H]1CCC2C3C(C[C@H](O)[C@@]21C)[C@@]1(C)CC[C@H](NCCCNCCCN)C[C@H]1C[C@H]3O (stereo partly drawn) [Compound (5), methyl 3β-norspermidinocholate]",
    "measured": 0.85
  },
  {
    "compound": "CC(C)OC(=O)CC[C@@H](C)[C@H]1CCC2C3CCC4C[C@@H](NCCCNCCCN)CC[C@]4(C)C3C[C@H](O)[C@@]21C (stereo partly drawn) [Compound (2), isopropyl 3β-norspermidinodeoxycholate]",
    "measured": 1.15
  },
  {
    "compound": "COC(=O)CC[C@@H](C)[C@H]1CCC2C3CCC4C[C@@H](NCCNCCNCCNCCN)CC[C@]4(C)C3C[C@H](O)[C@@]21C (stereo partly drawn) [(19)]",
    "measured": 1.18
  },
  {
    "compound": "CC(C)OC(=O)CC[C@@H](C)[C@H]1CCC2C3C(C[C@H](O)[C@@]21C)[C@@]1(C)CC[C@H](NCCN(CCN)CCN)CC1C[C@H]3O (stereo partly drawn) [(35)]",
    "measured": 1.75
  },
  {
    "compound": "COC(=O)CC[C@@H](C)[C@H]1CCC2C3CCC4C[C@@H](NCCCNCCCNCCCN)CC[C@]4(C)C3C[C@H](O)[C@@]21C (stereo partly drawn) [Compound (3), methyl 3β-norsperminodeoxycholate]",
    "measured": 0.30
  }
]

---

tested on: E. coli ATCC28922; assay: MIC determination by microplate dilution, E. coli human strain; format: cell-based, Escherichia coli; conditions: Escherichia coli, ATCC28922, Gram-negative, Mueller-Hinton medium, 24 h, 37° C.
Quick rule for you: MIC under 30 µg/mL gets label 1, anything else gets label 0.

[
  {
    "compound": "COC(=O)CC[C@@H](C)[C@H]1CCC2C3C(CC[C@@]21C)[C@@]1(C)CC[C@H](NCCCNCCCNCCCN)CC1C[C@H]3O (stereo partly drawn) [Compound (8), methyl 3β-norsperminochenodeoxycholate]",
    "assay_system": "E. coli ATCC28922",
    "category": "label 1"
  },
  {
    "compound": "CC(C)OC(=O)CC[C@@H](C)[C@H]1CCC2C3C(CC[C@@]21C)[C@@]1(C)CC[C@H](NCCCN(C)CCCN)CC1C[C@H]3O (stereo partly drawn) [(41)]",
    "assay_system": "E. coli ATCC28922",
    "category": "label 0"
  },
  {
    "compound": "CC(C)OC(=O)CC[C@@H](C)[C@H]1CCC2C3C(CC[C@@]21C)[C@@]1(C)CC[C@H](NCCCN(CCCN)CCCN)CC1C[C@H]3O (stereo partly drawn) [(39)]",
    "assay_system": "E. coli ATCC28922",
    "category": "label 1"
  },
  {
    "compound": "CC(C)OC(=O)CC[C@@H](C)[C@H]1CCC2C3C(CC[C@@]21C)[C@@]1(C)CC[C@H](NCCNCCNCCNCCNCCN)CC1C[C@H]3O (stereo partly drawn) [(23)]",
    "assay_system": "E. coli ATCC28922",
    "category": "label 1"
  },
  {
    "compound": "COC(=O)CC[C@@H](C)[C@H]1CCC2C3CCC4C[C@@H](NCCCN(CCCN)CCCN)CC[C@]4(C)C3CC[C@@]21C (stereo partly drawn) [(46)]",
    "assay_system": "E. coli ATCC28922",
    "category": "label 0"
  },
  {
    "compound": "CC(C)OC(=O)CC[C@@H](C)[C@H]1CCC2C3CCC4C[C@@H](NCCCN(CCCN)CCCN)CC[C@]4(C)C3C[C@H](O)[C@@]21C (stereo partly drawn) [(28)]",
    "assay_system": "E. coli ATCC28922",
    "category": "label 1"
  },
  {
    "compound": "CC(C)OC(=O)CC[C@@H](C)[C@H]1CCC2C3C(C[C@H](O)[C@@]21C)[C@@]1(C)CC[C@H](NCCCNCCCN)CC1C[C@H]3O (stereo partly drawn) [(7), isopropyl 3β-norspermidinocholate]",
    "assay_system": "E. coli ATCC28922",
    "category": "label 1"
  },
  {
    "compound": "COC(=O)CC[C@@H](C)[C@H]1CCC2C3CCC4C[C@@H](NCCNCCNCCNCCN)CC[C@]4(C)C3C[C@H](O)[C@@]21C (stereo partly drawn) [(19)]",
    "assay_system": "E. coli ATCC28922",
    "category": "label 1"
  },
  {
    "compound": "CC(C)OC(=O)CC[C@@H](C)[C@H]1CCC2C3CCC4C[C@@H](NCCCNCCCN)CC[C@]4(C)C3C[C@H](O)[C@@]21C (stereo partly drawn) [Compound (2), isopropyl 3β-norspermidinodeoxycholate]",
    "assay_system": "E. coli ATCC28922",
    "category": "label 1"
  },
  {
    "compound": "COC(=O)CC[C@@H](C)[C@H]1CCC2C3CCC4C[C@@H](NCCCNCCCNCCCN)CC[C@]4(C)C3C[C@H](O)[C@@]21C (stereo partly drawn) [Compound (3), methyl 3β-norsperminodeoxycholate]",
    "assay_system": "E. coli ATCC28922",
    "category": "label 1"
  }
]
